Reference source for all entries: patent US8957093B2

- experimental-system: GST-PPARG-LBD (Homo sapiens (Human), UniProt P37231)
- Sequence (P37231 238-503): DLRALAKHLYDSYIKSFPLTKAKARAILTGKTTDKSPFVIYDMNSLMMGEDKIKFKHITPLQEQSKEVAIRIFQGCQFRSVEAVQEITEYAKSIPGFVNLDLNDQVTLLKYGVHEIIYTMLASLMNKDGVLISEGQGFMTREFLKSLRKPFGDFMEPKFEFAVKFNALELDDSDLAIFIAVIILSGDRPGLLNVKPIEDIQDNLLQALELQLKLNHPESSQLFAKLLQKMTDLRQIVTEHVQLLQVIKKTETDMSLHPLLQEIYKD
- protocol: Lanthascreen PPARG competitive binding assay (Invitrogen, TR-FRET)
- condition-description: Lanthascreen competitive binding; NA = not active; inc = incomplete curve; read-out: IC50 (nM) Lantha
- Description: Lanthascreen PPARG Competitive Binding Assay (Invitrogen) The assay was performed according to manufacturer protocol. […] Experiment was performed in triplicate, and incubated for 2 hours in the dark prior to assay read in Perkin Elmer ViewLux ultra HTS microplate reader. FRET signal was measured by excitation at 340 nm and emission at 520 nm for fluorescein and 490 nm for terbium. Fold change over DMSO was calculated using GraphPad Prism Software (La Jolla, Calif.) by calculating 520 nm/490 nm ratio. […]
Give measured IC50 for each item. Keep answers brief.

Hey, quick one: what's IC50 for each of these?
1. C[C@H](NC(=O)c1ccc2c(ccn2Cc2ccc(-c3ccc(S(C)(=O)=O)cc3)cc2)c1)c1ccc([N+](=O)[O-])cc1
2. Cc1c(C)n(Cc2ccc(-c3ccccc3-c3nnn[nH]3)cc2)c2ccc(C(=O)N[C@H](C)c3cccc(Br)c3)cc12
3. Cc1c(C)n(Cc2ccc(-c3ccccc3C(=O)O)cc2)c2ccc(C(=O)N[C@@H](C)c3cc(C(F)(F)F)ccc3F)cc12
4. Cc1c(C)n(Cc2ccc(-c3ccccc3C(=O)O)cc2)c2ccc(C(=O)NC3COc4ccccc4C3)cc12 (stereo not drawn)
5. Cc1c(C)n(Cc2ccc(-c3ccccc3-c3nn[nH]n3)cc2)c2ccc(C(=O)N[C@@H](C)c3cccc(C(C)C)c3)cc12
6. Cc1c(C)n(Cc2ccc(-c3ccccc3C(=O)O)cc2)c2ccc(C(=O)NCc3cccc(CN)c3)cc12
7. Cc1c(C)n(Cc2ccc(-c3ccccc3C(=O)O)cc2)c2ccc(C(=O)N[C@@H](C)c3ccc(OC(F)(F)F)cc3)cc12

A.
1. > 1000 nM
2. < 1 nM
3. 11 nM
4. 10 nM
5. 22 nM
6. > 1000 nM
7. 28 nM

Hey, quick one: what's IC50 for each of these?
1. Cc1c(C)n(Cc2ccc(-c3ccccc3C(=O)O)cc2)c2ccc(C(=O)N[C@@H](C)c3ccc(F)cc3C(F)(F)F)cc12
2. Cc1c(C)n(Cc2ccc(-c3ccccc3C(=O)O)cc2)c2ccc(C(=O)NC(C)c3cccc(C4CC4)n3)cc12 (stereo not drawn)
3. Cc1c(C)n(Cc2ccc(-c3ccccc3C(=O)O)cc2)c2ccc(C(=O)NCc3cccc(S(C)(=O)=O)c3)cc12
4. Cc1c(C)n(Cc2ccc(-c3ccccc3-c3nnn[nH]3)cc2)c2ccc(C(=O)N[C@@H](C)c3ccc(Br)cc3)cc12
5. COc1c(F)cccc1[C@H](C)NC(=O)c1ccc2c(c1)c(C)c(C)n2Cc1ccc(-c2ccccc2C(=O)O)cc1
6. Cc1c(C)n(Cc2ccc(-c3ccccc3C(=O)O)cc2)c2ccc(C(=O)NC[C@H](C)c3ccccc3)cc12
7. Cc1c(C)n(Cc2ccc(-c3ccccc3C(=O)O)cc2)c2ccc(C(=O)N[C@@H](C)c3ccncc3Cl)cc12

A.
["36 nM", "< 1 nM", "230 nM", "> 1000 nM", "21 nM", "76 nM", "41 nM"]

Hey, quick one: what's IC50 for each of these?
1. Cc1c(C)n(Cc2ccc(-c3ccccc3C(=O)O)cc2)c2ccc(C(=O)N[C@@H](C)c3ccnc4ccccc34)cc12
2. Cc1c(C)n(Cc2ccc(-c3ccccc3C(=O)O)cc2)c2ccc(C(=O)N[C@@H]3COc4ccccc4C3)cc12
3. COc1ccccc1[C@H](C)NC(=O)c1ccc2c(c1)c(C)c(C)n2Cc1ccc(-c2ccccc2C(=O)O)cc1
4. Cc1c(C)n(Cc2ccc(-c3ccccc3C(=O)O)cc2)c2ccc(C(=O)N[C@@H](C)c3cc(Cl)cc(Cl)c3)cc12
5. Cc1ccc(CNC(=O)c2ccc3c(c2)c(C)c(C)n3Cc2ccc(-c3ccccc3C(=O)O)cc2)o1

A.
6 nM
88 nM
16 nM
15 nM
12 nM

Hey, quick one: what's IC50 for each of these?
1. Cc1c(C)n(Cc2ccc(-c3ccccc3C(=O)O)cc2)c2ccc(C(=O)NCC3COc4ccccc4C3)cc12 (stereo not drawn)
2. Cc1cn(Cc2ccc(-c3ccccc3C(=O)O)cc2)c2ccc(C(=O)N[C@@H](C)c3ccc(Br)cc3)cc12
3. Cc1c(C)n(Cc2ccc(-c3ccccc3C(=O)O)cc2)c2ccc(C(=O)NCc3cccc(Cl)c3)cc12
4. Cc1c(C)n(Cc2ccc(-c3ccccc3C(=O)O)cc2)c2ccc(C(=O)N[C@@H](C)c3ccccc3C(F)(F)F)cc12
5. CCCc1ccc([C@H](C)NC(=O)c2ccc3c(c2)c(C)c(C)n3Cc2ccc(-c3ccccc3C(=O)O)cc2)cc1
6. COc1ccc(F)cc1[C@H](C)NC(=O)c1ccc2c(c1)c(C)c(C)n2Cc1ccc(-c2ccccc2C(=O)O)cc1
7. COc1cc(C(F)(F)F)ccc1[C@@H](C)NC(=O)c1ccc2c(c1)c(C)c(C)n2Cc1ccc(-c2ccccc2C(=O)O)cc1

A.
17 nM
24 nM
2 nM
22 nM
40 nM
26 nM
2 nM

Reported IC50 for Cc1c(C)n(Cc2ccc(-c3ccccc3C(=O)O)cc2)c2ccc(C(=O)N[C@H](C)c3ccccc3C(F)(F)F)cc12 was 1 nM
